# Tested target: Bem1-2, P29366
# Sequence (P29366 139-227): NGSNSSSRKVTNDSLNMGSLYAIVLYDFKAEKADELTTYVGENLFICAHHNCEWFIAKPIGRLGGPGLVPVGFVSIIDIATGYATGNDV
# Experimental details: SPOT array
# Condition summary: median of control spots 4347
Readout type: SPOT intensity

{"columns": ["Binder", "Measured result"],
 "data": [
  ["QRIRKIPGIPLMSVG", 0],
  ["QFDLKMPSKPIHNLK", 0],
  ["IAPIPMPKPNPTHIS", 0],
  ["ISPPASPPPEFDFSK", 0],
  ["PSTMDFPKLPSFQNS", 8],
  ["GRLRPKRIAPWHLIQ", 6],
  ["LASNSPPVYPKRIRH", 0],
  ["EVTPKVPERPSRRKT", 13],
  ["KRKRFNLLLPKPYLT", 4],
  ["LYEAMPPTLPHRDWK", 1],
  ["KTRLRPAFIQQLWSS", 0],
  ["HHNRRKPLEVYFKAT", 6],
  ["NENKKLPPAPTVFGL", 0],
  ["GKFIPSRPAPKPPSS", 14600],
  ["VNIPSPSSSPPPIPK", 49]
]}
